System: MS2 coat protein
protocol text: apparent KD of MS2 coat protein; higher = weaker reporter binding
study conditions: Eterna round: R107; input ligand: theophylline 20 uM
Please respond with reported apparent KD of MS2 coat protein for every item in the list.
Numbers only, in nM.

Examples with answers:
GGGCCCGGGCGCGAGCCCGGGCCCAUUGAUACCAGUGAGAGAGAGCGCCCUUGGCAGCGAAUCCUAACAUGAGGAUCACCCAUGU [5.N]	84.6
CAAAACCUUACAGAUACCAGCACAUGAGGAUCACCCAUGUAUUGGACACUUCGCUCAUCGUGCCCUUGGCAGCUGUGGGACGAGG [Tiatenan]	132

I need apparent KD of MS2 coat protein for every entry listed below, if you could help.
1. AAAAUAAAUAAAACGGGUAACAUGAAGGAUACCAGCCAGGAAACUGGCCCUUGGCAGCCUCUACAUGAGGAUCACCCAUGUCCCG [Mat - Same State Theophlline A - Mod of Eli - D14]
2. AUAACAUGAGGAUCACCCAUGUAUUGGUAACGAGGACCGGUACGGCCGCCACUCGAAUUUUGGUGGUAUAAUAUAUAUAUGAUUA [JR_SSTryptoA_Sub016]
3. AAUACCGGUCCUCGAAGGUGAUCCUCAUAACGAGGACCGGUACGGCCGCCACUCGAUAACAUGAGGAUCACCCAUGUAAUAAUAA [|T'-M'-Trp-Ms2|_Design6]
4. AUCGCACCUGGUGAUACCAGCGUUUGCUCGUGACAUGAGGAUCACCCAUGUGGCCAGUGAUGCCCUUGGCAGCAUGGUCGGUGCA [Same State - Theophylline B (Freestyle 26)]

1. 142
2. 25.4
3. 175
4. 376
